# assay-system: human MUC1 antigen in plate ELISA (KCM lysate) (human, UniProt P15941 24-1255, limits assumed, tumor-associated glycosylation, not specified further)
# Sequence (P15941 other isoform, or with tags, fused parts or gaps limits assumed): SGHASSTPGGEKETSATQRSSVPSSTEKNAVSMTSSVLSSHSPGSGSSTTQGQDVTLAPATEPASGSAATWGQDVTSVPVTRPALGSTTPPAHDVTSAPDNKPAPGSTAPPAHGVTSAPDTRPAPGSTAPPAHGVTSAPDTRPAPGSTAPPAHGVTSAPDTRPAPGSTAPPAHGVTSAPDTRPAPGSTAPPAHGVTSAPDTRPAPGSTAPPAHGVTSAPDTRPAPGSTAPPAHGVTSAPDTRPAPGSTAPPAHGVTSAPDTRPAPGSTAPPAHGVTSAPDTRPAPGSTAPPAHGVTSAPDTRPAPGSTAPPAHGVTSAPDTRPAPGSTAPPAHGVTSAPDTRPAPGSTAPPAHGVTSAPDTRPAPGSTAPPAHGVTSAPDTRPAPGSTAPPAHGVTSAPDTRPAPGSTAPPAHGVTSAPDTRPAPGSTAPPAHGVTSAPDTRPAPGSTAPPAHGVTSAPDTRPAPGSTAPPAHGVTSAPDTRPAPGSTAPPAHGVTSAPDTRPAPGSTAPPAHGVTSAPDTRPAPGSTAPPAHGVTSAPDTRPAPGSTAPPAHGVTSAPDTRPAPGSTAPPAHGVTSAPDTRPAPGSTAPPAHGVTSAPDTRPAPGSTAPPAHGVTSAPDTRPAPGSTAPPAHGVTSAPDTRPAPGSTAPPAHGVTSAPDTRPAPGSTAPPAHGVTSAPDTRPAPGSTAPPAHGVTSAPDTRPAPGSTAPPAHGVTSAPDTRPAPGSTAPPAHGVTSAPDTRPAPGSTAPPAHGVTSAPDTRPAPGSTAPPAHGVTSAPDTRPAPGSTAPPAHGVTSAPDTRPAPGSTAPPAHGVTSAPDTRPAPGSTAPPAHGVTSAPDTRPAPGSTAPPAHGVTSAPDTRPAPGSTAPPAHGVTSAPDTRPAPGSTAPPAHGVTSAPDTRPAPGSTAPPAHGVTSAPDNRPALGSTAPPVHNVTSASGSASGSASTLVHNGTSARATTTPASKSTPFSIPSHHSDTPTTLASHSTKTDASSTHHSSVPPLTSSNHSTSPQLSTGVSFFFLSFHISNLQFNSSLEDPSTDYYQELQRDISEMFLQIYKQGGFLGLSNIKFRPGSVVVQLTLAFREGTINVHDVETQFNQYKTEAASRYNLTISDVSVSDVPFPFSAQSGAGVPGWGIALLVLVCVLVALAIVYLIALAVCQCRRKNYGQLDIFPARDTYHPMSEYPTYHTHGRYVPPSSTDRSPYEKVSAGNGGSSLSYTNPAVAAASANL
# assay-details: sandwich ELISA: hybridoma antibody coat, KCM lysate 10 µg/mL, test antibody in 5-fold dilutions, HRP goat anti-human IgG, OD450
measurement-name: EC50 (µg/mL)
Give bare numbers, in µg/mL.

>  <binder>
Humanized HC1 + LC3 (antibody, human IgG2, kappa, V domains shown, Listing: IgG2 heavy chain; also called H6245 + L6247) VH: QVQLVQSGAEVKKPGASVKVSCKASGYTFTNYWMHWVRQAPGQGLEWMGYINPSSGYTQYNQKFQGRVTMTRDTSTSTVYMELSSLRSEDTAVYYCSTYYGDYLFPYWGQGTLVTVSS VL: DIVLTQSPLSLPVTLGQPASISCRSSQDIVYGNGNTYLEWYQQRPGQSPRLLIYKVSNRFSGVPDSFSGSGSGTDFTLTISRVEAEDVGIYYCFQGSHVPYTFGEGTKLEIKR

>  <EC50 [µg/mL]>
0.051

$$$$

Consider the following items and state reported EC50 for each.
1. Humanized HC3 + LC3 (antibody, human IgG2, kappa, V domains shown, Listing: IgG2 heavy chain; also called H6247 + L6247) VH: EVQLVQSGAEVKKPGASVKVSCKASGYTFTNYWMHWVRQAPGQGLEWMGYINPSSGYTQYNQKFQGWVTMTADTSISTAYMELSRLRSDDTAVYYCSTYYGDYLFPYWGQGTLVTVSS VL: DIVLTQSPLSLPVTLGQPASISCRSSQDIVYGNGNTYLEWYQQRPGQSPRLLIYKVSNRFSGVPDSFSGSGSGTDFTLTISRVEAEDVGIYYCFQGSHVPYTFGEGTKLEIKR
2. Humanized HC1 + LC2 (antibody, human IgG2, kappa, V domains shown, Listing: IgG2 heavy chain; also called H6245 + L6246) VH: QVQLVQSGAEVKKPGASVKVSCKASGYTFTNYWMHWVRQAPGQGLEWMGYINPSSGYTQYNQKFQGRVTMTRDTSTSTVYMELSSLRSEDTAVYYCSTYYGDYLFPYWGQGTLVTVSS VL: DVVMTQSPLSLPVTLGQPASISCRSSQDIVYGNGNTYLEWYQQRPGQSPRLLIYKVSNRFSGVPDRFSGSGSGTDFTLKISRVEAEDVGVYYCFQGSHVPYTFGQGTKLEIKR
3. Humanized HC2 + LC3 (antibody, human IgG2, kappa, V domains shown, Listing: IgG2 heavy chain; also called H6246 + L6247) VH: QVQLVQSGAEVKKPGASVKVSCKASGYTFTNYWMHWVRQAPGQGLEWMGYINPSSGYTQYNQKFQGRVTMTADTSTSTVYMELSSLRSEDTAVYYCSTYYGDYLFPYWGQGTLVTVSS VL: DIVLTQSPLSLPVTLGQPASISCRSSQDIVYGNGNTYLEWYQQRPGQSPRLLIYKVSNRFSGVPDSFSGSGSGTDFTLTISRVEAEDVGIYYCFQGSHVPYTFGEGTKLEIKR

1: 0.004; 2: 0.055; 3: 0.027

Consider the following items and state reported EC50 for each.
1. Humanized HC3 + LC2 (antibody, human IgG2, kappa, V domains shown, Listing: IgG2 heavy chain; also called H6247 + L6246) VH: EVQLVQSGAEVKKPGASVKVSCKASGYTFTNYWMHWVRQAPGQGLEWMGYINPSSGYTQYNQKFQGWVTMTADTSISTAYMELSRLRSDDTAVYYCSTYYGDYLFPYWGQGTLVTVSS VL: DVVMTQSPLSLPVTLGQPASISCRSSQDIVYGNGNTYLEWYQQRPGQSPRLLIYKVSNRFSGVPDRFSGSGSGTDFTLKISRVEAEDVGVYYCFQGSHVPYTFGQGTKLEIKR
2. Humanized HC2 + LC2 (antibody, human IgG2, kappa, V domains shown, Listing: IgG2 heavy chain; also called H6246 + L6246) VH: QVQLVQSGAEVKKPGASVKVSCKASGYTFTNYWMHWVRQAPGQGLEWMGYINPSSGYTQYNQKFQGRVTMTADTSTSTVYMELSSLRSEDTAVYYCSTYYGDYLFPYWGQGTLVTVSS VL: DVVMTQSPLSLPVTLGQPASISCRSSQDIVYGNGNTYLEWYQQRPGQSPRLLIYKVSNRFSGVPDRFSGSGSGTDFTLKISRVEAEDVGVYYCFQGSHVPYTFGQGTKLEIKR
3. Chimeric parental antibody (H4965 + L4965) (antibody, IgG1, V domains shown, also called pp 9854; Chimeric Parental HC) VH: EVQLQQSGGERATPGASVKMSCKTSGYTFTNYWMHWVKQRPGQGLEWIGYINPSSGYTQYNQKFKDKATLTADKSSSTAYIQLSSLTSEDSAVYYCSTYYGDYLFPYWGQGTLVTVSA VL: DVLMTQTPLSLPVSLGDQASISCRSSQDIVYGNGNTYLEWYLQKPGQSPKLLIYKVSNRFSGVPDRFSGSGSGTDFTLKISRVEAEDLGVYYCFQGSHVPYTFGGGTKLEIKR

1: 0.007; 2: 0.032; 3: 0.006
